assayed_system: Ghrelin/GHRP/GHS Receptor (Rattus norvegicus, UniProt O08725)
Sequence (O08725 whole entry): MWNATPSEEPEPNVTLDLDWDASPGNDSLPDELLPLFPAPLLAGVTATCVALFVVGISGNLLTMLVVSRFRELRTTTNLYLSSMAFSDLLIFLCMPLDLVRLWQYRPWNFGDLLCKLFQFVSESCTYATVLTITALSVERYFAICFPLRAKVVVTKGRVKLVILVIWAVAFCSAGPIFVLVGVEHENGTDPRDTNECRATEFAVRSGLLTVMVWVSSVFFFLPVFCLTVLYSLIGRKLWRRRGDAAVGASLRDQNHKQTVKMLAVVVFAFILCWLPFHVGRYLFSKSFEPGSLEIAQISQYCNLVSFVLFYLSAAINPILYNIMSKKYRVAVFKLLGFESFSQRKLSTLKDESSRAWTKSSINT
assay_explanation: In vitro GH release from cell culture of pituitary cells
Assay type: cell-based
Parameters: After dispersion, the cells were collected by centrifugation, wash with DMEM and placed into culture well; endogenous in cells; host or cells: dispersed primary rat anterior pituitary cells
condition_context: Table 8; peptide antagonist dosage 1 (head prints μg/i.v.)
Where no end group is shown, it is not given here. [ ]: non-standard residue; d: D form. Cha = N[C@@H](CC1CCCCC1)C(=O)O; dCha = N[C@H](CC1CCCCC1)C(=O)O; Nle = CCCC[C@H](N)C(=O)O; Aib = CC(C)(N)C(=O)O
readout: Unstimulated Basal GH release from cell cultures of pituitary cells (ng/mL)
Field format: number, assumed ng/mL, no unit text.

αAib-DTrp-DAla-cyclohexylAla-NH2 ([Aib][dW][dA][Cha]-NH2; N-terminus assumed; SMILES C[C@@H](NC(=O)[C@@H](Cc1c[nH]c2ccccc12)NC(=O)C(C)(C)N)C(=O)N[C@@H](CC1CCCCC1)C(N)=O) | 1086
αAib-DTrp-DcyclohexylAla-NH2 ([Aib]-[dW]-[dCha]-NH2; N-terminus assumed; SMILES CC(C)(N)C(=O)N[C@H](Cc1c[nH]c2ccccc12)C(=O)N[C@H](CC1CCCCC1)C(N)=O) | 980
DAla-DcyclohexylAla-Ala-Ala-Phe-DPhe-Nle-NH2 ([dA][dCha]AAF[dF][Nle]-NH2; N-terminus assumed; SMILES CCCC[C@H](NC(=O)[C@@H](Cc1ccccc1)NC(=O)[C@H](Cc1ccccc1)NC(=O)[C@H](C)NC(=O)[C@H](C)NC(=O)[C@@H](CC1CCCCC1)NC(=O)[C@@H](C)N)C(N)=O) | 286

Suppose we examine the substance DLys-Tyr-DTrp-DTrp-Phe-NH2 ([dK]Y[dW][dW]F-NH2; N-terminus assumed; SMILES NCCCC[C@@H](N)C(=O)N[C@@H](Cc1ccc(O)cc1)C(=O)N[C@H](Cc1c[nH]c2ccccc12)C(=O)N[C@H](Cc1c[nH]c2ccccc12)C(=O)N[C@@H](Cc1ccccc1)C(N)=O) ; what Unstimulated Basal GH release from cell cultures of pituitary cells value has been reported?
1451

Source listed as patent US9724381B2.
